// provenance: patent US10544130B2

- TARGET SYSTEM: VIM-1 (Pseudomonas aeruginosa (strain ATCC 15692 / DSM 22644 / CIP 104116 / JCM 14847 / LMG 12228 / 1C / PRS 101 / PAO1))
- Format: biochemical
- SETUP CONDITIONS: fluorescence assay, CCF2-FA substrate, 2 hours at 25° C.
- Protocol: Enzyme Activity: Determination of IC50 The Class B enzyme activities were measured in the presence of the test inhibitor in a fluorescence assay against a commercially available substrate consisting of a cephalosporin core linking 7-hydroxycoumarin to fluorescein (CCF2-FA). […] The IC50 value was determined from semi-logarithmic plots of enzyme inhibition versus inhibitor concentration, with a curve generated using a 4-parameter fit.
PROPERTY LABEL: IC50 (nM)

COMPOUND	UNIT OF MEASURE	EXPERIMENTAL RESULT
Nc1nc2c(-c3ccc(S(=O)(=O)N4CCN(CCO)CC4)c(S(N)(=O)=O)c3-c3nnn[nH]3)cccc2s1.O=C(O)C(F)(F)F [Example 92, trifluoroacetate]	nM	1.41

---

Catalogue of molecules with associated Serratia marcescens (IMP-1) MITC95
- System: Serratia marcescens expressing IMP-1 (CL5741)
- Format: cell-based
- SETUP CONDITIONS: with imipenem 1 μg/ml; 95% inhibition of bacterial growth

MOLECULE	Serratia marcescens (IMP-1) MITC95 / µM
C[N+](C)(C)CCCNS(=O)(=O)c1ccc(-c2cccc3sc(N)nc23)c(-c2nnn[nH]2)c1S(N)(=O)=O [Example 392]	3.125
C[C@@H](N)CNS(=O)(=O)c1ccc(-c2cccc3sc(N)nc23)c(-c2nn[nH]n2)c1S(N)(=O)=O [Example 390]	1.563
NCCNS(=O)(=O)c1ccc(-c2ccc3sc(CN)nc3c2)c(-c2nn[nH]n2)c1S(N)(=O)=O [Example 476]	0.7813
NC[C@H]1CCN(S(=O)(=O)c2ccc(-c3cccc4[nH]c(N)nc34)c(-c3nn[nH]n3)c2S(N)(=O)=O)C1 [Example 253]	0.7813
Nc1ccc(-c2ccc(S(=O)(=O)N3CCNCC3)c(S(N)(=O)=O)c2-c2nn[nH]n2)cn1 [Example 485]	0.7813
Nc1ccc(-c2ccc(S(=O)(=O)N[C@H]3CNC[C@H]3O)c(S(N)(=O)=O)c2-c2nn[nH]n2)cn1 [Example 410]	0.7813
NCCNS(=O)(=O)c1ccc(-c2cccc3[nH]c(CN)nc23)c(-c2nn[nH]n2)c1S(N)(=O)=O [Example 343]	0.7813
NC[C@@H](O)CNS(=O)(=O)c1ccc(-c2ccnc(N)c2)c(-c2nn[nH]n2)c1S(N)(=O)=O [Example 419]	0.7813
Nc1nc2c(-c3ccc(S(=O)(=O)NC[C@H]4CCNC4)c(S(N)(=O)=O)c3-c3nn[nH]n3)cccc2[nH]1 [Example 259]	0.7813
NCC(CN)NS(=O)(=O)c1ccc(-c2cccc3[nH]nnc23)c(-c2nn[nH]n2)c1S(N)(=O)=O [Example 403]	1.563
NC[C@@H](N)CNS(=O)(=O)c1ccc(-c2cnc3cc[nH]c3c2)c(-c2nn[nH]n2)c1S(N)(=O)=O [Example 378]	1.563
NC[C@@H](CO)NS(=O)(=O)c1ccc(-c2cccc(N)n2)c(-c2nn[nH]n2)c1S(N)(=O)=O [Example 382]	1.563
NCC(CN)NS(=O)(=O)c1ccc(-c2cccn3ccnc23)c(-c2nn[nH]n2)c1S(N)(=O)=O [Example 386]	1.563
Cn1c(N)nc2c(-c3ccc(S(=O)(=O)NC[C@@H](O)CN)c(S(N)(=O)=O)c3-c3nn[nH]n3)cccc21 [Example 308]	0.7813
